Assay Protocol: Half life in rats
Type: ADME, organism-based
Test Context: rat, in vivo
Property Label: half-life
Number first, unit second: that is the form wanted.

Below, each entry is followed by its recorded half-life result.
IN: Which half-life reading was recorded for the compound "Nc1ccc(CNC(=O)[C@@H]2CCCN2C(=O)[C@H](N)C(C2CCCCC2)C2CCCCC2)cn1" ?
OUT: 102 min

IN: Which half-life reading was recorded for the compound "Cc1cc(N)nc(C)c1CNC(=O)[C@@H]1CCCN1C(=O)[C@H](NC(=O)OC(C)(C)C)C(c1ccccc1)c1ccccc1" ?
OUT: 50 min

IN: Which half-life reading was recorded for the compound "Nc1ccc(CNC(=O)[C@@H]2CCCN2C(=O)[C@@H](Cc2ccc(Cl)c(Cl)c2)NS(=O)(=O)Cc2ccccc2)cc1" ?
OUT: 20 min

Continuing:
IN: Which half-life reading was recorded for the compound "CC(C)(C)OC(=O)N[C@@H](C(=O)N1CCC[C@H]1C(=O)NCc1ccc(N)nc1)C(C1CCCCC1)C1CCCCC1" ?
OUT: 35 min

----------
pKi values by entry
Tested System: UniProtKB P00760
Sequence (P00760 whole entry): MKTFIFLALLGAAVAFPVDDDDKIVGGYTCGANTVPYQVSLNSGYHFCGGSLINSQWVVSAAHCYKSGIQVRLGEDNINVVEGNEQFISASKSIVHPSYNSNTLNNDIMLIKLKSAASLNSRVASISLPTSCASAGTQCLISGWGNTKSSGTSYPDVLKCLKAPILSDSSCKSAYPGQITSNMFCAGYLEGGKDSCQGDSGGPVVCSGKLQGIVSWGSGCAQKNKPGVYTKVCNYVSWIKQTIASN
Assay Protocol: In vitro inhibitory activity against bovine trypsin
pKi is a log-scale quantity: -log10 of the concentration expressed in molar.

Below, each entry is followed by its recorded pKi result.
IN: Which pKi reading was recorded for the compound "Nc1nc(CNC(=O)[C@@H]2CCCN2C(=O)[C@H](N)C(c2ccccc2)c2ccccc2)cs1" ?
OUT: 3.56

IN: Which pKi reading was recorded for the compound "CC(C)(C)OC(=O)N[C@@H](C(=O)N1CCC[C@H]1C(=O)NCc1ccc(N)nc1)C(C1CCCCC1)C1CCCCC1" ?
OUT: 6.18

IN: Which pKi reading was recorded for the compound "CN[C@H](Cc1ccccc1)C(=O)N1CCC[C@H]1C(=O)NC[C@H]1CC[C@H](N)CC1" ?
OUT: 4.96

Continuing:
IN: Which pKi reading was recorded for the compound "Nc1cc(CNC(=O)[C@@H]2CCCN2C(=O)[C@@H](Cc2ccc(Cl)c(Cl)c2)NS(=O)(=O)Cc2ccccc2)cs1" ?
OUT: 4.25

IN: Which pKi reading was recorded for the compound "O=C(NCc1cccnc1)[C@@H]1CCCN1C(=O)[C@@H](Cc1ccc(Cl)c(Cl)c1)NS(=O)(=O)Cc1ccccc1" ?
OUT: 3.55

IN: Which pKi reading was recorded for the compound "Cc1cc(N)nc(C)c1CNC(=O)[C@@H]1CCCN1C(=O)[C@H](NC(=O)OC(C)(C)C)C(c1ccccc1)c1ccccc1" ?
OUT: 5.60

IN: Which pKi reading was recorded for the compound "Nc1ccc(CNC(=O)[C@@H]2CCCN2C(=O)[C@@H](Cc2ccc(Cl)c(Cl)c2)NS(=O)(=O)Cc2ccccc2)cn1" ?
OUT: 6.37

----------
Tested System: UniProt P00760
Assay Protocol: In vitro inhibitory activity against bovine trypsin
Classify: MET when Ki is strictly less than 3 µM; NOT MET when Ki is not.

IN: API: query returns whether the compound falls strictly under 3 µM in Ki. Query: "CC(C)(C)OC(=O)N[C@@H](C(=O)N1CCC[C@H]1C(=O)NCc1ccc(N)nc1)C(c1ccccc1)c1ccccc1"
OUT: MET

IN: API: query returns whether the compound falls strictly under 3 µM in Ki. Query: "CC(C)(C)OC(=O)N[C@H](Cc1ccccc1)C(=O)N1CCC[C@H]1C(=O)NCc1ccc(N)cc1"
OUT: NOT MET

IN: API: query returns whether the compound falls strictly under 3 µM in Ki. Query: "O=C(NCc1ccncc1)[C@@H]1CCCN1C(=O)[C@@H](Cc1ccc(Cl)c(Cl)c1)NS(=O)(=O)Cc1ccccc1"
OUT: NOT MET

IN: API: query returns whether the compound falls strictly under 3 µM in Ki. Query: "O=C(NCc1ccccc1)[C@@H]1CCCN1C(=O)[C@@H](Cc1ccc(Cl)c(Cl)c1)NS(=O)(=O)Cc1ccccc1"
OUT: NOT MET

IN: API: query returns whether the compound falls strictly under 3 µM in Ki. Query: "Cc1cc(N)nc(C)c1CNC(=O)[C@@H]1CCCN1C(=O)[C@H](NC(=O)OC(C)(C)C)C(C1CCCCC1)C1CCCCC1"
OUT: MET

IN: API: query returns whether the compound falls strictly under 3 µM in Ki. Query: "Cc1cc(N)nc(C)c1CNC(=O)[C@@H]1CCCN1C(=O)[C@H](N)C(c1ccccc1)c1ccccc1"
OUT: NOT MET

// next entry
IN: API: query returns whether the compound falls strictly under 3 µM in Ki. Query: "Nc1ccc(CNC(=O)[C@@H]2CCCN2C(=O)[C@@H](Cc2ccc(Cl)c(Cl)c2)NS(=O)(=O)Cc2ccccc2)cc1"
OUT: NOT MET
